biological target: SHP-1 (Homo sapiens); construct: The catalytic domain of SHP-1, SHP-1(ΔSH2), was purified from a recombinant Escherichia coli strain; experiment: PTP inhibition assay (pNPP hydrolysis), catalytic domain of SHP-1, SHP-1(ΔSH2); details: slow-binding inhibition, 1 h preincubation, 1.0 mM pNPP; read-out: KI* (overall equilibrium inhibition constant)
Sequence (P29350 214-595): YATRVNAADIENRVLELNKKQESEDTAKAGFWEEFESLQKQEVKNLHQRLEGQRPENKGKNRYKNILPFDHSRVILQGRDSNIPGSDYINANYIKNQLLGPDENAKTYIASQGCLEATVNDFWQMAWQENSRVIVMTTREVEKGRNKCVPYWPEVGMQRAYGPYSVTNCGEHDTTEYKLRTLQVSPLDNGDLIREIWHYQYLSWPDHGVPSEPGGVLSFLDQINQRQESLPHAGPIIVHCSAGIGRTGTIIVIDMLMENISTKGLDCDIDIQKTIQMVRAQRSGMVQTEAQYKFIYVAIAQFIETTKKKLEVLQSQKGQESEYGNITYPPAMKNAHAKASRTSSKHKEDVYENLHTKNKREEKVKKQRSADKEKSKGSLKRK
readout.name: pKi
pKi (log units): -log10 of the concentration in mol/L.

Would you please give the reported pKi of NC(=O)C(CCC(=O)O)NC(=O)C(CCC(=O)O)NC(=O)CNC(=O)c1ccc(C=CC=O)cc1 (stereo not shown) with SHP-1 (Homo sapiens)?
4.97

---

Target: PTP1B (Homo sapiens, UniProt P18031)
Construct: made in house; host or cells: Escherichia coli
Sequence (P18031 1-435): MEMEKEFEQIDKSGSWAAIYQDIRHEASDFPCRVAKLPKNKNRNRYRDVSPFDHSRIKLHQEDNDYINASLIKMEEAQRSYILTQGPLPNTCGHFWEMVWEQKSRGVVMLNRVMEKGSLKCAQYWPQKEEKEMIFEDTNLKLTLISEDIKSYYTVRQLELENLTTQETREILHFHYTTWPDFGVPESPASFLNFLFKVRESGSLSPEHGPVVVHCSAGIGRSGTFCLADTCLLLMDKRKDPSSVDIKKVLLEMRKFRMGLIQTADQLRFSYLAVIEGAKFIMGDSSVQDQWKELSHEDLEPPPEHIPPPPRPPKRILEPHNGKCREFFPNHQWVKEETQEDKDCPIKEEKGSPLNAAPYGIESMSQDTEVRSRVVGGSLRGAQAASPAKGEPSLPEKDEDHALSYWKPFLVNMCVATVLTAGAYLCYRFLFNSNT
Experiment: PTP inhibition assay (pNPP hydrolysis), PTP1B
Assay type: biochemical
Settings: initial reaction rates (<15 s), reaction initiated by enzyme; read-out: K1, equilibrium inhibition constant for the initial complex E·I
Protocol: PTP Inhibition Assays. Stock solutions of inhibitors were prepared in dimethyl sulfoxide (DMSO) and their concentrations were calculated from the known inhibitor masses and solvent volumes. […] The reaction progress was monitored at 405 nm on a Perkin-Elmer UV-Vis spectrophotometer. The IC50 values were determined by plotting the remaining activity as a function of inhibitor concentration, and the K1* values were obtained by fitting the data to the Michaelis-Menten equation. […]
readout.name: Ki (µM)
Reply numerically in µM, unit not repeated.

Specify reported Ki for the molecule shown: NC(=O)C(CCC(=O)O)NC(=O)C(CCC(=O)O)NC(=O)CNC(=O)c1ccc(C=CC=O)cc1 (stereo not shown)
550

---

biological target: PTP1B (Homo sapiens, UniProt P18031)
readout.name: pIC50
pIC50 is defined as minus the log10 of a concentration measured in mol/L.

Find pIC50 for O=CC=Cc1ccc(C(=O)O)cc1 [Compound 3, 4-(3-Oxo-1-propenyl)benzoic acid] on PTP1B (Homo sapiens, UniProt P18031) and write it down.
3.01

---

target: SHP-1 (Homo sapiens); construct: The catalytic domain of SHP-1, SHP-1(ΔSH2), was purified from a recombinant Escherichia coli strain; test: PTP inhibition assay (pNPP hydrolysis), catalytic domain of SHP-1, SHP-1(ΔSH2); conditions: 1 h preincubation with inhibitor, 1.0 mM pNPP, pH 7.4
readout.name: IC50 (µM)
Provide the reading as a plain figure in µM.

Quickly give me recorded IC50 for `O=CC=Cc1ccc(C(=O)O)cc1`
230
